meta.source: ChEMBL document CHEMBL1961873

# assay-system: Ephrin type-B receptor 2 (Homo sapiens)
# applied-conditions: at 1 µM
# Description: GSK_PKIS: EPHB2 mean inhibition at 1 uM [Nanosyn]
Each entry gets f if its inhibition stays under 9%, and t if its inhibition is 9% or above.

// below: answered compounds
Hi team, for COC(=O)Nc1nc2ccc(Oc3ccc(NC(=O)Nc4cc(C(F)(F)F)ccc4F)cc3)cc2s1 , is the recorded inhibition at or above 9%? t

Hi team, for CCN1CCC(C(=O)Nc2n[nH]c3nnc(-c4cccc(F)c4F)cc23)CC1 , is the recorded inhibition at or above 9%? f

Hi team, for O=C(O[C@H]1CN[C@H](C#Cc2cc3ncnc(Nc4ccc5c(ccn5Cc5cc(F)ccc5F)c4)c3s2)C1)N1CCOCC1 , is the recorded inhibition at or above 9%? f

Hi team, for Cc1ccc(-c2cc3c(NC(=O)C4CC4)ncnc3o2)cc1 , is the recorded inhibition at or above 9%? t

Hi team, for c1ccc(-c2n[nH]cc2-c2ccnc(-c3ccc(OCCn4ccnc4)cc3)c2)nc1 , is the recorded inhibition at or above 9%? f

Hi team, for Cc1cc(O)cc(C)c1/C=C/c1cncc(C(N)=O)c1 , is the recorded inhibition at or above 9%? t

Hi team, for Cc1nnc(-c2cccc(-c3ccc(C(=O)NCC4CC4)cc3)c2)o1 , is the recorded inhibition at or above 9%? t

Hi team, for COc1cc(Nc2ncc(-c3ccccc3)o2)cc(OC)c1 , is the recorded inhibition at or above 9%? t

---
Hi team, for NS(=O)(=O)c1cccc(N/C=C2\C(=O)Nc3ccccc32)c1 , is the recorded inhibition at or above 9%? t

Hi team, for NS(=O)(=O)c1ccc(N/N=C2\C(=O)Nc3ccc(C(=O)NCc4ccncc4)cc32)cc1 , is the recorded inhibition at or above 9%? t
